Recorded values, source the supplement of paper PMC8728848.

# target-system: Fuc(a1-2)Gal(b1-3)GlcNAc(b1-2)Man(a1-3)[Fuc(a1-2)Gal(b1-3)GlcNAc(b1-2)Man(a1-6)]Man(b1-4)GlcNAc(b1-4)[Fuc(a1-6)]GlcNAc
# experimental-details: glycan array binding signal (z-score within array); higher = stronger binding
# particulars: glycan notation: IUPAC condensed, linker removed
The entries come from a sample that favours the strongest signals as a whole.
I'd be grateful if you could share measured glycan array binding signal (z-score) for these entries.
Lab note: record the figure alone, no unit after it.

Task: I am curious: what glycan array binding signal (z-score) value has been reported for Tectonin 2 (Laccaria bicolor) (protein) MPWKGISGSLSRISAGSVTNVWGVNAANNIYRYTGDDAKPWVQIPGALTDIGAAADGTVWGVNAAGNIYRYVWDSNHWTQIKGALKRISAGSRTNVWGVNAGGAIYRYTGDDANPWVQIPGVLSDIGAGADGTVWGVNAAGEIYRYTGDQGDPNHWVKIPGALSAISAGIKTNVWGVNSANNIYTSTGDDKNPWLGIGGSLVDIGAGTDGVVWGVNAGGGIYRWIRD ?
Output: -0.069

Task: Lookup Gal 9 (Canis lupus) (protein) MAFSSSQPPYLSPGVPFSGKIQGGLQDGLKITINGTILYCNGTRFAVNFHSGHSDSDIAFHFNPRFEEGGYVVCNTKQKGSWGSEERKMQMPFQMGNPFELCFMVNSCDFKVTVNGSHFTQYSHRVPFHYVDTLSITGAVQLSYISFQSPGVWQSSSAPITQTVIHTVQTTPGQPFPNPIIPPTAYPTPTYPMPFFTSIPGGLYPSKSIIVSGTVLPGAKRFHINLRSGNDIAFHLNPRFNENTVVRNMQINNSWGSEERSLPRKMPFVQGQSFSVWIMCEGHCFKVAVDGEHLFEYYHRLKNLLAINNMEVAGDVQLTHVQT
Output: -0.285

Task: Lookup AAL (Aleuria aurantia), P18891 (protein) PTEFLYTSKIAAISWAATGGRQQRVYFQDLNGKIREAQRGGDNPWTGGSSQNVIGEAKLFSPLAAVTWKSAQGIQIRVYCVNKDNILSEFVYDGSKWITGQLGSVGVKVGSNSKLAALQWGGSESAPPNIRVYYQKSNGSGSSIHEYVWSGKWTAGASFGSTVPGTGIGATAIGPGRLRIYYQATDNKIREHCWDSNSWYVGGFSASASAGVSIAAISWGSTPNIRVYWQKGREELYEAAYGGSWNTPGQIKDASRPTPSLPDTFIAANSSGNIDISVFFQASGVSLQQWQWISGKGWSIGAVVPTGTPAGW
Output: -0.012
